Tested on: erythrocytes
Experiment: Hemolytic effect of xanthates (OD 450 of supernatants of diluted blood)
Details: presence of cyclodextrin, 30 minutes at room temperature
Catalogue of 50% hemolysis (IC50) values
API: value field is a number in µg/mL; no unit string.

Known 50% hemolysis (IC50) results, listed for orientation:
{"compound": "COC(=S)S [Methyl, methylxanthate]", "unit_info": "µg/mL", "50% hemolysis (IC50)": 650}
{"compound": "CCCCCCOC(=S)S [Hexylxanthate, hexylxanthate]", "unit_info": "µg/mL", "50% hemolysis (IC50)": 750}
{"compound": "CCCCOC(=S)S [Butyl, butylxanthate]", "unit_info": "µg/mL", "50% hemolysis (IC50)": 650}

Note: attention shifts to another entry.
Asked: Please look up its 50% hemolysis (IC50): S=C([S-])OC1CC2CC1C1CCCC21.[K+] (stereo not shown) [D 609]
Given back: 800
